Where these numbers come from: ChEMBL document CHEMBL1140113

target.or.system: OCT1 (SLC22A1) (Homo sapiens, UniProt O15245)
Sequence (O15245 whole entry): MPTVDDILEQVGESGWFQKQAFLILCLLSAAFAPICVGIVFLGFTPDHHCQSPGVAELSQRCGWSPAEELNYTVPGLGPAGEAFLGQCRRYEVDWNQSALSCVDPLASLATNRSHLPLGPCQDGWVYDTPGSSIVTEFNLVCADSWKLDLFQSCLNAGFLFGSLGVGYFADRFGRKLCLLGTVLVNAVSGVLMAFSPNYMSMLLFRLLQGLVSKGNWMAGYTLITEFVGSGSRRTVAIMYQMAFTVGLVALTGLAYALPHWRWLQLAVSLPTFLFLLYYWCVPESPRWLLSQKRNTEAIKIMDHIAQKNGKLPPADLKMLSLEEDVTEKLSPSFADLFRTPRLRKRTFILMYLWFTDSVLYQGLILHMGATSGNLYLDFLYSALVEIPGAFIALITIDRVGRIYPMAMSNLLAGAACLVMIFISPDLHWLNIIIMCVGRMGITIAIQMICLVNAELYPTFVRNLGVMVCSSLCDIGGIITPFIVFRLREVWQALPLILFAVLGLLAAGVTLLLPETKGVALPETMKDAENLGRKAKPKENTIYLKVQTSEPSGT
assay: in vitro
condition.label: hek293

# compound, inhibition at 100 µM / %
rows = [
    ("C=CCOc1ccccc1OCC(O)CNC(C)C (configuration not stated)", 61.5),
    ("CN/C(=N/CCSCc1nc[nH]c1C)NC#N", 8.1),
    ("Clc1cccc(Cl)c1N=C1NCCN1", 65.4),
    ("NCCc1c[nH]cn1", 4.1),
    ("CNCCCN1c2ccccc2CCc2ccccc21", 84.3),
    ("NCCc1ccc(O)c(O)c1", 11.8),
    ("CC(C)c1cccc(C(C)C)c1O", -17.9),
    ("CNC[C@H](O)c1ccc(O)c(O)c1 [EPINEPHRINE]", 29.1),
    ("COc1cc2nc(N3CCN(C(=O)c4ccco4)CC3)nc(N)c2cc1OC", 55.6),
    ("COc1cc(Cc2cnc(N)nc2N)cc(OC)c1OC", 58.1),
    ("NC(N)=Nc1nc(CSCCC(N)=NS(N)(=O)=O)cs1", 13.9),
    ("Cc1nccn1CC1CCc2c(c3ccccc3n2C)C1=O (configuration not stated)", 63.8),
    ("CN(C)CCCN1c2ccccc2CCc2ccccc21", 82.8),
    ("CN(C)C(=O)C(CCN1CCC(O)(c2ccc(Cl)cc2)CC1)(c1ccccc1)c1ccccc1 [LOPERAMIDE]", 73.4),
    ("CC(C)N(CCC(C(N)=O)(c1ccccc1)c1ccccn1)C(C)C (configuration not stated) [DISOPYRAMIDE]", 68.8),
    ("O=P1(N(CCCl)CCCl)NCCCO1 (configuration not stated) [CYCLOPHOSPHAMIDE ANHYDROUS]", 4.7),
    ("C[N+](C)(C)CCO", 21.3),
]
